Test system: HOP-92
Protocol notes: NCI tumour cell line growth inhibition, 48 h
Calls of active or inactive are those of the source. No stated cut-off is given here; in the data, active = GI50 up to about 1.1 µM and inactive = higher.
Reported GI50 by item:
Measure name: GI50

> print(dat)
                                   molecule       measured.value
1  CN(CCO)CCCC1COc2ccccc2O1 (stereo not given)  > 100 µM (inactive)
2  Cc1ccc(SC(C)/C=C/NNC2=NN=C(c3ccccc3)C(c3ccccc3)N2)cc1 (stereo not given)     20 µM (inactive)
3  Clc1cccc(C2SCc3nc4ccccc4n32)c1 (stereo not given)   11.5 µM (inactive)
4  CC1(C)COP(=S)(c2ccccn2)O[C@@H]1c1ccccc1 (stereo not given in full)  > 100 µM (inactive)
5       O=C(CC(O)(C(F)(F)F)C(F)(F)F)c1cccs1   > 10 µM (inactive)
